- TARGET OR TEST SYSTEM: Putative hydrolase (Pseudomonas aeruginosa (strain UCBPP-PA14), UniProt A0A0H2ZD27)
- Sequence (A0A0H2ZD27 whole entry): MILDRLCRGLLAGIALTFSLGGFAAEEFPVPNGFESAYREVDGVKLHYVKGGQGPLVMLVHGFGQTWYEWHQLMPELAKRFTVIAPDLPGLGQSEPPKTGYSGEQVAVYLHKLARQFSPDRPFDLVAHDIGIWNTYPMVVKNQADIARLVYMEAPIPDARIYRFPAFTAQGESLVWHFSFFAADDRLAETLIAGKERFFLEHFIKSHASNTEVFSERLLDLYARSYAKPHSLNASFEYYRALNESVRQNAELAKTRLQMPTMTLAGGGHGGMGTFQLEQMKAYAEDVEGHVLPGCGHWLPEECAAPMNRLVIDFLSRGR
- METHOD NOTES: Biochemical Characterization of Cif Inhibitors
Record form. Attribute: log10 of IC50. Fill in for each entry.
Log scale reminder: IC50 in µM, then log10 taken.

Query string: Form field: reported log10 of IC50 of Cc1ccc(-c2cc(C(F)(F)F)nn2-c2ccc(S(N)(=O)=O)cc2)cc1
Result string: 0.87

Query string: Cool, now O=C(NC(=O)c1c(F)cccc1F)Nc1cc(Cl)cc(Cl)c1
Result string: 0.18

Query string: Cool, now O=C(O)Cc1cc(I)c(Oc2cc(I)c(O)c(I)c2)c(I)c1
Result string: 1.30

Query string: Cool, now Cc1cc(C)cc(NC(=O)NC(=O)c2c(F)cccc2F)c1
Result string: 0.26

Query string: Cool, now O=C(O)Cc1cc(I)c(Oc2ccc(O)cc2)c(I)c1
Result string: 2.00

Data provenance is BindingDB's records for patent US10322118.
